Where these numbers come from: patent US20230382966A1

System: FGF21-signaling in 293/KLB cells
experiment description: Block of FGF21-signaling in 293/KLB cells
Assay type: cell-based
condition context: Table 1, FGF21 associated antagonist

{"substance": "21C25: FGF21 associated antagonist (FGF21^185-209, C25) (PPDVGSSDPLSMVGPSQGRSPSYAS)", "study system": "FGF21-signaling in 293/KLB cells", "u": "nM", "IC50": 75.2}
